- test: soluble fraction after stress (log2 fold change); higher = more stays soluble; pooled small domains, quantitative proteomics;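 note: 20 min heating vs room temperature control held 20 min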
- run-conditions: stress: 75 degC
Is soluble fraction (log2) at least -1? Then Condition met. If not, Condition not met.

Solved entries (count: 2):
HMDGEINPYTGREYVTNSVRMHPRRIGYVQVYSRKDHKWTDMTEWAFLGEQERKKVLLGKAYEPPVYL :: Condition not met
HMDARSTHIAAIHVLKSKLQLQDSDYRALLLTLTGQTSSKDLSEHQRRAVRNHMQQLAERMGVVQ :: Condition not met

*Q* Could you verify whether the entry "HMNNENELSSIISKVLEENPAEKERFLNGEKKLAGFFMGKIMKATKGTADPKKAAQLLNEIL" shows soluble fraction (log2) of no less than -1?
*A* Condition met

*Q* Is the recorded value of soluble fraction (log2) equal to or greater than -1 for this sequence? "HMIELEGVISSVLAGTMFKVKLRGNGHEVLAHISGKMRKKFIRLVIGDAVKIEMSPYDMDKARIVYRI"
*A* Condition met

*Q* Exam item: decide whether the reported soluble fraction (log2) for "HMKRREENLRRLALSTAERVKRKGKKEILNPMSPQERRIIHLTLQNNKEVVTHSEGEDPYRRVIISPRN" is at least -1.
*A* Condition met

*Q* State whether the measured soluble fraction (log2) reaches -1, counting equality as reaching it, for "HMVSIGSQVAKRRRELRLTQQNLAEKMGVSFQAISSWEREEFLPDINKLQKLAAILNTKISYLLEE"
*A* Condition not met

*Q* // inclusive: soluble fraction (log2) at least -1? input: "HMLRQRVFRIIQNNINSKNYFVYTKQILAELAGISMRSLNRTLSELQNDRLIIVDSGTIRLFT"
*A* Condition not met

*Q* # bool: soluble fraction (log2) of "HMTGQLTEEELKQRQERAMSNPEIQGILSDPVMRQVLQDMSTDPKAAAEHQRNPTIMAKIQKLINAGIVQV" >= -1
*A* Condition met
